Target: hTRPA1 (Homo sapiens)
Sequence (O75762 whole entry): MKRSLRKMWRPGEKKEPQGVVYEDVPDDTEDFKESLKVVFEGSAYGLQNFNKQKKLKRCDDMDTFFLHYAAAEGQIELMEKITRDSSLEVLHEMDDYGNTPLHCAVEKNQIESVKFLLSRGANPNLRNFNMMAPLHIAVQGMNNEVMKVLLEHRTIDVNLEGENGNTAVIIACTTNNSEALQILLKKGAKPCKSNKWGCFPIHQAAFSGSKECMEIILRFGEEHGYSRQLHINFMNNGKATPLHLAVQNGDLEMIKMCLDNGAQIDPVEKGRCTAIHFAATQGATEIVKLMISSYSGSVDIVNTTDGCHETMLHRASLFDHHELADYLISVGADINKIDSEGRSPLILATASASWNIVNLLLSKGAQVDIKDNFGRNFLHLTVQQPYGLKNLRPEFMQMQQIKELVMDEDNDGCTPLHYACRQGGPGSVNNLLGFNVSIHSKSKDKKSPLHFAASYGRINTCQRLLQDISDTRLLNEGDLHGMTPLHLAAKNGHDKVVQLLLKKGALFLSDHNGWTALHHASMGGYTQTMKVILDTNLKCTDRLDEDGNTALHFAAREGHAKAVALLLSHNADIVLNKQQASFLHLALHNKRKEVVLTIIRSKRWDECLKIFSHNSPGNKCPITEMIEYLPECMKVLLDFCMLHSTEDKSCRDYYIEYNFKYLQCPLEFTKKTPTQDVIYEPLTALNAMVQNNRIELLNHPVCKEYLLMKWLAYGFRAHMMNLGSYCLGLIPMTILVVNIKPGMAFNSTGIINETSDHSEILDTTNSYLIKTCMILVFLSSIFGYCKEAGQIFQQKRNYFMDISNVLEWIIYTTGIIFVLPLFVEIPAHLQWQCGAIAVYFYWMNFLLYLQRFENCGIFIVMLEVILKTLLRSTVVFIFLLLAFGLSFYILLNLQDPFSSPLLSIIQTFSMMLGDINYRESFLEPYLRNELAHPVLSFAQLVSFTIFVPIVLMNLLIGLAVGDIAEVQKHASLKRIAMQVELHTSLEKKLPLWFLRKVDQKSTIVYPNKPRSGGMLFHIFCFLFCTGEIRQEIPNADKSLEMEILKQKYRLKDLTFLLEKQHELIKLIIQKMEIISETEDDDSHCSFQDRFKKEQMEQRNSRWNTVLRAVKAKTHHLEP
Assay: IC50 determination, dose response calcium flux (FLIPR) assay, ChanTest hTRPA1-CHO stably transfected cell line
Details: CHO-K1 Tet-On hTRPA1 cells, 30' preincubation, agonist cinnamaldehyde final 100 uM
Where a name gives a salt, the structure may show the parent alone.
Give measured pIC50 for each item. Keep answers brief.
Numbers only, as −log10 of the molar value.

Worked examples, 2 compounds total:
[[record]]
compound = "O=C(Nc1ccc(F)c(F)c1)O[C@@H](CN1CCCC(c2cccc(C(F)(F)F)c2)C1)C(F)(F)F (stereo partly drawn) [Example 67]"
attribute_measured = "pIC50"
assay_result = 6.75

[[record]]
compound = "O=C(Nc1ccc(Cl)cc1)O[C@@H](CN1CCCC(Oc2cccc(OC(F)(F)F)c2)C1)C(F)(F)F (stereo partly drawn) [Example 50, hydrochloride]"
attribute_measured = "pIC50"
assay_result = 7.26


Below: the item to evaluate.
Data request: For O=C(Nc1ccc(Cl)cc1)O[C@@H](CN1CCCC(Oc2ccccc2)C1)C(F)(F)F (stereo partly drawn) [Example 40, hydrochloride] , what is its reported pIC50?
Data returned: 6.72

---

Molecular target: hTRPA1 (Homo sapiens)
Experiment: IC50 determination, dose response calcium flux (FLIPR) assay, ChanTest hTRPA1-CHO stably transfected cell line
Details: CHO-K1 Tet-On hTRPA1 cells, 30' preincubation, agonist cinnamaldehyde final 100 uM
Counter-ions that a name gives are not always drawn.
attribute-measured: pIC50
One number for each entry, as −log10 of the molar value.

Previously resolved entries follow.
[[record]]
compound = "N#Cc1ccnc(OC2CCCN(C[C@H](OC(=O)Nc3ccc(Cl)cc3)C(F)(F)F)C2)c1 (stereo partly shown) [Example 54, hydrochloride]"
assay_result = 6.22

[[record]]
compound = "COc1cccc(C2CCCN(CC(OC(=O)Nc3ccc(Cl)cc3)C(F)(F)F)C2)c1 (stereo not shown) [Example 2, hydrochloride]"
assay_result = 6.46

[[record]]
compound = "O=C(Nc1ccc(Cl)cn1)O[C@@H](CN1CCCC(c2cccc(C(F)(F)F)c2)C1)C(F)(F)F (stereo partly shown) [Example 59, hydrochloride]"
assay_result = 6.57


Data request: Under hTRPA1 (Homo sapiens): pIC50 value of COCCCC1CCCN(CC(OC(=O)Nc2ccc(Cl)cc2)C(F)(F)F)C1 (stereo not shown) ?
Data returned: 6.54
